Source listed as PubChem BioAssay (NCI).

Test system: DU-145 prostate
Assay: NCI tumour cell line growth inhibition, 48 h
Quick list: GI50 per entry.

Known results for molecules:
>>> experimental_value("Cc1nc2ccccc2nc1N=Nc1ccccc1")
"36.1 µM"
>>> experimental_value("NC(CSSCC(N)C(=O)O)C(=O)O (configuration not stated)")
"> 100 µM"

q: Consider the molecule COc1cc(C)c2sc3ccccc3c(=O)c2c1NCCN(C)C and give its measured GI50.
a: 7 µM

q: Repeat for the following molecule: Cl.Fc1c[c-]c(-c2ccccn2)c(F)c1.[Pt].c1ccc([PH+](C[PH+](c2ccccc2)c2ccccc2)c2ccccc2)cc1
a: 0.355 µM

q: Now give it for COc1cc2c(c(OC)c1OC)-c1ccc(N=NC(N)=S)c(=O)cc1[C@@H](NC(C)=O)CC2 too.
a: 0.655 µM

q: What about this molecule? NC(=O)c1sc(-n2cnc3cc(C(F)(F)F)ccc32)cc1OCc1ccccc1Br
a: > 25 µM

q: Try CCCCCCCCCCCCCC[n+]1ccc(C)cc1 next.
a: 0.608 µM

---

Tested on: MCF7 breast
Assay: NCI tumour cell line growth inhibition, 48 h
Listing of entries alongside the reported TGI.

Some solved cases for reference:
>>> experimental_value("CC1(C)OC2OC(C(COS(=O)(=O)C(F)(F)F)N=[N+]=[N-])C(OC(=O)c3ccccc3)C2O1 (stereo not given)")
"> 100 µM"
>>> experimental_value("Br[C@@H]1[C@H]2c3nc4ccccc4nc3[C@@H]1C[C@H]2Br")
"> 100 µM"
>>> experimental_value("C/C(=N\\NC(=S)N1CCCCCC1)c1cccc2cccnc12")
"> 100 µM"
>>> experimental_value("CCSC[C@@H]1C[C@](O)(c2ccc(F)cc2)[C@@H](c2ccc(F)cc2)O1")
"34.8 µM"
>>> experimental_value("CCc1c(-c2ccc(OC)cc2)oc(OC)c(C)c1=O")
"> 100 µM"
>>> experimental_value("Cc1cccc(CC(Cc2ccc(C)cc2C(=O)O)C(=O)O)c1 (stereo not given)")
"> 100 µM"
>>> experimental_value("CC1=CP(=O)(c2c(C(C)C)cc(C(C)C)cc2C(C)C)CCC1Cl (stereo not given)")
"35.5 µM"
>>> experimental_value("CC(=O)OC1[C@H](OC(C)=O)C2=C(C)[C@@H](OC(C)=O)C[C@@]2(C(C)(C)O)[C@@H](OC(C)=O)[C@H]2[C@@]1(C)[C@@H](OC(C)=O)CC(OC(C)=O)[C@]21CO1 (stereo not given in full)")
"> 100 µM"

q: I'd like to know its TGI. The compound in question is O=C1CSC(c2ccc(Cl)cc2Cl)N1c1ccc(Oc2ccc(Cl)cc2)c(Cl)c1 (stereo not given)
a: > 100 µM

q: Query O=Cc1ccc(-c2ccc(-c3nc4ccccc4s3)cc2)s1 next
a: > 100 µM

q: Likewise for CC(C)(NC(=O)OCc1ccccc1)C(=O)OC(=O)C(C)(C)NC(=O)OCc1ccccc1 ?
a: > 100 µM

q: Try the compound COc1ccccc1C(=O)NCC1CCCN2CCCCC12 (stereo not given)
a: > 100 µM

q: And the next one, O=C(NO)NCCCl ?
a: > 100 µM

q: Moving on to CC12CCC(CC1)C(C)(C)O2
a: 27.9 µM

q: Also check COC(=O)c1cc(OC)c(OC)c(OC)c1-c1cc2c(cc1C=O)OCO2
a: > 10 µM
